# TARGET: recombinant PTP1B catalytic domain (Homo sapiens, UniProt P18031)
# Construct: The recombinant PTP1B catalytic domain was expressed and purified according to a previous report; made in house
# Sequence (P18031 3-277 limits assumed): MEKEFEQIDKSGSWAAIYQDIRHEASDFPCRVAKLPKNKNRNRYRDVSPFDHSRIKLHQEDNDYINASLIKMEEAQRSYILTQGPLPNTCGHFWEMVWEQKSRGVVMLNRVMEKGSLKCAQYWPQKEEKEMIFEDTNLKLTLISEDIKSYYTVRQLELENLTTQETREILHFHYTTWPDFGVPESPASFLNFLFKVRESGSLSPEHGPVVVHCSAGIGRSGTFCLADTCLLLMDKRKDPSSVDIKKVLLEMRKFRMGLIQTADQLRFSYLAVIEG
# PROCEDURE DETAILS: PTP1B inhibitory activity assay (pNPP hydrolysis)
# Assay type: biochemical
# ASSAY SETUP: pNPP substrate, 30 °C, pH 6.5; IC50 ≥ 50 μM was considered inactive
ASSAY READOUT: IC50 (µM)
Number in µM, nothing else.

Recorded results for 2 molecules are shown here.
> print(dat)
                                   molecule                                    target  assay.readout  value.units  number
1  Cc1cc(Br)c(C2(C)CCC(=CBr)C2C)cc1O (stereo not shown)  recombinant PTP1B catalytic domain (Homo sapiens, UniProt P18031)           IC50           µM    18.8
2  C=C1CCC(C)(c2cc(O)c(C)cc2Br)C1C (stereo not shown)  recombinant PTP1B catalytic domain (Homo sapiens, UniProt P18031)           IC50           µM    21.8

Next item in the queue.
Quick note, IC50 for Cc1cc(O)c(C2(C)CCC(=CBr)C2C)cc1Br (stereo not shown) landed at 15.6
